Biological target: Recombinant human MAO-B (Homo sapiens, UniProt P27338)
Sequence (P27338 1-520): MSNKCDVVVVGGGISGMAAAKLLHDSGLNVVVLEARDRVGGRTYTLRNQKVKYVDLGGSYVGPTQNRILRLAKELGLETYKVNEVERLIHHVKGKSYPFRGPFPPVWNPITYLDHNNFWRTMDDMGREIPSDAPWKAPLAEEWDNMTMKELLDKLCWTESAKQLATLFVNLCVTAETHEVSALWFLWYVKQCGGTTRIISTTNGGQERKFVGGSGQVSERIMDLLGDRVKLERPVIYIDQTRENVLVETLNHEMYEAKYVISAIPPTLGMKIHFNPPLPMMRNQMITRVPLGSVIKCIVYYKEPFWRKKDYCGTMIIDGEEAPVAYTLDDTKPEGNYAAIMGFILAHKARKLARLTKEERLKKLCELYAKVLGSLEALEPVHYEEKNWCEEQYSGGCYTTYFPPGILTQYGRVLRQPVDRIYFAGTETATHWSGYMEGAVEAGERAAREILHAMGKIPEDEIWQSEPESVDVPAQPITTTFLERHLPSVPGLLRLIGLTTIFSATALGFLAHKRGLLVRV
Assay: MAO-B inhibition, conversion of kynuramine to 4-hydroxyquinoline
Details: kynuramine 25 μM, 10 min incubation
pIC50: −log10 of the molar value.
endpoint-label: pIC50

a. CC(C)Oc1ccc(-c2nc(-c3cccc4c3CCC4=O)no2)cc1C#N
b. CC(C)Oc1ccc(-c2nc(-c3cccc4c3CC[C@@H]4N)no2)cc1C#N
Problem: Higher pIC50 between a and b ? Answer by quoting the chosen item's label.
Solution: a
